I'd be grateful if you could share measured pEC50 for these entries.
Test system: HCV 1a-H77 subgenomic replicon
Assay: microbe, parasite or virus in culture
Format: cell-based, HCV genotype 1a
Settings: Hepatitis C virus, stable replicon, strain 1a H77, 5% FBS, no human plasma; read-out: 1a H77 5% FBS EC50
Numbers only, as −log10 of the molar value.

Some solved cases for reference:
[[record]]
molecule = "CS(=O)(=O)N(CCC1CCOCC1)c1cc2oc(-c3ccc(F)cc3)c(-c3ncc[nH]3)c2cc1C1CC1 [Example 48]"
system_name = "HCV 1a-H77 subgenomic replicon"
numeric_result = 7.94

[[record]]
molecule = "CS(=O)(=O)N(CCC/C(N)=N/O)c1cc2oc(-c3ccc(F)cc3)c(-c3ncc[nH]3)c2cc1C1CC1 [Example 176]"
system_name = "HCV 1a-H77 subgenomic replicon"
numeric_result = 7.44

[[record]]
molecule = "CCCCCN(c1cc2oc(-c3ccc(F)cc3)c(-c3ncc[nH]3)c2cc1C1CC1)S(C)(=O)=O [Example 70]"
system_name = "HCV 1a-H77 subgenomic replicon"
numeric_result = 7.38


Moving on to the next molecule.
query: Output pEC50 of CS(=O)(=O)N(CCCc1noc(=S)[nH]1)c1cc2oc(-c3ccc(F)cc3)c(-c3ncc[nH]3)c2cc1C1CC1 [Example 177]
result: 7.49
